Listing of entries alongside the reported IC50.
target: JAK1 (Homo sapiens); construct: 5 μl of catalytic domain recombinant Kinase enzyme+Tyr peptide substrate (Invitrogen, Calif.); test: Z'-LYTE kinase assay, JAK1 tyrosine phosphorylation activity; conditions: read-out: JAK 1 IC50

Some solved cases for reference:
C[C@@H](Nc1nc(Nc2ccc(Cl)c(NC(=O)N(C)C)c2)ncc1C(N)=O)c1ccccc1 : 100 to 1000 nM
COCC(=O)N(c1cccc(Nc2ncc(C(N)=O)c(N[C@H](C)c3ccccc3)n2)c1)C1CC1 : 10 to 100 nM
COC[C@H]1CCCN1C(=O)Nc1cccc(Nc2ncc(C(N)=O)c(NCc3ccccc3)n2)c1 : 10 to 100 nM
NC(=O)c1cnc(Nc2ccc(Cl)c(NC(=O)N3CCCC3)c2)nc1NCc1ccccc1F : > 1000 nM

Ask: Give its IC50 value. Item: CN(C)C(=O)Nc1ccc(F)c(Nc2ncc(C(N)=O)c(NCc3ccccc3)n2)c1
Result: > 1000 nM

Ask: One more compound: COCC(=O)Nc1cccc(Nc2ncc(C(N)=O)c(NCc3c(F)ccc(F)c3F)n2)c1
Result: 10 to 100 nM

Ask: One more compound: C[C@@H]1CCCN1C(=O)Nc1cccc(Nc2ncc(C(N)=O)c(NCc3ccccc3)n2)c1
Result: 10 to 100 nM

Ask: One more compound: COC(=O)Nc1cccc(Nc2ncc(C(N)=O)c(NCc3ccccc3)n2)c1
Result: 100 to 1000 nM

Ask: One more compound: CCn1ccc2c(Nc3nc(Nc4cccc(NC(C)=O)c4)ncc3C(N)=O)cccc21
Result: 10 to 100 nM

* * *

target: JAK2 (Homo sapiens); construct: 5 μl of catalytic domain recombinant Kinase enzyme+Tyr peptide substrate (Invitrogen, Calif.); test: Z'-LYTE kinase assay, JAK2 tyrosine phosphorylation activity
Listing of entries alongside the reported IC50.

NC(=O)c1cnc(Nc2cccc(NC(=O)N3CCCC3)c2)nc1NCc1ccccc1F : 10 to 100 nM
CC(=O)Nc1cccc(Nc2ncc(C(N)=O)c(Nc3cccc4c3cnn4C)n2)c1 : 10 to 100 nM
NC(=O)c1cnc(Nc2cccc(NC(=O)C3CCC3)c2)nc1NCc1ccccc1 : 10 to 100 nM
C[C@@H](Nc1nc(Nc2cccc(NC(=O)N3CCCCC3)c2)ncc1C(N)=O)c1ccccc1 : 10 to 100 nM

Ask: Give its IC50 value. Item: CCC(=O)Nc1cccc(Nc2ncc(C(N)=O)c(NC3CCCC3)n2)c1
Result: 10 to 100 nM

Ask: One more compound: CCn1ccc2c(Nc3nc(Nc4cccc(NC(C)=O)c4)ncc3C(N)=O)cccc21
Result: 10 to 100 nM

Ask: One more compound: C[C@H]1CCCN1C(=O)Nc1cccc(Nc2ncc(C(N)=O)c(NCc3ccccc3)n2)c1
Result: 10 to 100 nM

Ask: One more compound: C[C@@H](Nc1nc(Nc2cccc(NC(=O)N3CCCC3)c2)ncc1C(N)=O)c1ccccc1
Result: 10 to 100 nM

Ask: One more compound: CN(C)C(=O)Nc1ccc(F)c(Nc2ncc(C(N)=O)c(NCc3ccccc3)n2)c1
Result: > 1000 nM

Ask: One more compound: CNc1nc(Nc2cccc(NC(=O)N3CCCC3)c2)ncc1C(N)=O
Result: 100 to 1000 nM

Ask: One more compound: CN(C)[C@@H]1CCN(C(=O)Nc2cccc(Nc3ncc(C(N)=O)c(NCc4ccccc4)n3)c2)C1
Result: 10 to 100 nM

Ask: One more compound: NC(=O)c1cnc(Nc2ccc(Cl)c(NC(=O)N3CCCC3)c2)nc1NCc1ccccc1F
Result: > 1000 nM

* * *

Listing of entries alongside the reported IC50.
molecular target: JAK1 (Homo sapiens, UniProt P23458); construct: 5 μl of catalytic domain recombinant Kinase enzyme+Tyr peptide substrate (Invitrogen, Calif.); assay: Z'-LYTE kinase assay, JAK1 tyrosine phosphorylation activity; conditions: read-out: JAK 1 IC50
Sequence (P23458 875-1153 limits assumed): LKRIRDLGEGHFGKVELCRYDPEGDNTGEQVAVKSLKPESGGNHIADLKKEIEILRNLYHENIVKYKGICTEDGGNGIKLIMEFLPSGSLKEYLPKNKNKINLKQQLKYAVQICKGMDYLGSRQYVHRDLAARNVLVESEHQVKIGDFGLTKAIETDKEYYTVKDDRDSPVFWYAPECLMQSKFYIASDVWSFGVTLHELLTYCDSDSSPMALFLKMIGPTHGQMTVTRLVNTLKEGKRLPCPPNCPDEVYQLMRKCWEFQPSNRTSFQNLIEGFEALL

Some solved cases for reference:
CC(=O)Nc1ccc(F)c(Nc2ncc(C(N)=O)c(NCc3ccccc3)n2)c1 : 100 to 1000 nM
C[C@@H](Nc1nc(Nc2cccc(NC(=O)N3CCC[C@@H]3C)c2)ncc1C(N)=O)c1ccccc1 : 100 to 1000 nM

Ask: Give its IC50 value. Item: NC(=O)c1cnc(Nc2cccc(NC(=O)N3CCC3)c2)nc1NCc1ccccc1
Result: 10 to 100 nM

Ask: One more compound: COCC(=O)N(C)c1cccc(Nc2ncc(C(N)=O)c(NCc3ccccc3)n2)c1
Result: 10 to 100 nM

* * *

molecular target: JAK2 (Homo sapiens, UniProt O60674); construct: 5 μl of catalytic domain recombinant Kinase enzyme+Tyr peptide substrate (Invitrogen, Calif.); experiment: Z'-LYTE kinase assay, JAK2 tyrosine phosphorylation activity
Sequence (O60674 849-1124 limits assumed): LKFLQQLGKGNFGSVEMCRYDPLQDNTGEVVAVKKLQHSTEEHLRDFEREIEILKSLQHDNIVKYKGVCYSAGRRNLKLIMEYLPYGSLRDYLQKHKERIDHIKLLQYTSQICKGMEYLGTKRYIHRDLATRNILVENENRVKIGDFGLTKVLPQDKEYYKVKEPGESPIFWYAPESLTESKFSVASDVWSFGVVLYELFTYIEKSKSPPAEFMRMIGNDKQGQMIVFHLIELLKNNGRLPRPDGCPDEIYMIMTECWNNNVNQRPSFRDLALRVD
Listing of entries alongside the reported IC50.

Some solved cases for reference:
CC(=O)Nc1cccc(Nc2ncc(C(N)=O)c(NCCN3CCOCC3)n2)c1 [Example 80] : 100 to 1000 nM
CC(=O)Nc1cccc(Nc2ncc(C(N)=O)c(NC3CCCC3)n2)c1 [Example 15] : 10 to 100 nM
CC(=O)N(C)c1cccc(Nc2ncc(C(N)=O)c(N[C@H](C)c3ccccc3)n2)c1 [Example 87] : 1 to 10 nM
CC(=O)N(C)c1cccc(Nc2ncc(C(N)=O)c(NCc3ccccc3)n2)c1 [Example 79] : 10 to 100 nM

Ask: Give its IC50 value. Item: CCNC(=O)Nc1cc(Nc2ncc(C(N)=O)c(NCc3ccccc3)n2)ccc1Cl [Example 153]
Result: 100 to 1000 nM

Ask: One more compound: CNC(=O)Nc1cc(Nc2ncc(C(N)=O)c(NCc3ccccc3)n2)ccc1OC [Example 164]
Result: 10 to 100 nM

Ask: One more compound: CC(=O)Nc1cc(Nc2ncc(C(N)=O)c(Nc3cccc4nn(C)cc34)n2)ccc1OCCN(C)C [Example 229]
Result: 10 to 100 nM

Ask: One more compound: CCOC(=O)Nc1cccc(Nc2ncc(C(N)=O)c(NCc3ccccc3)n2)c1 [Example 31]
Result: 100 to 1000 nM

Ask: One more compound: COCC(=O)Nc1cccc(Nc2ncc(C(N)=O)c(NCc3ccc(C)cc3)n2)c1 [Example 43]
Result: 100 to 1000 nM

Ask: One more compound: C[C@@H](Nc1nc(Nc2ccc(Cl)c(NC(=O)N(C)C)c2)ncc1C(N)=O)c1ccccc1 [Example 195]
Result: 10 to 100 nM

Ask: One more compound: COCC(=O)Nc1cccc(Nc2ncc(C(N)=O)c(NC3CCCC3)n2)c1 [Example 22]
Result: 10 to 100 nM

* * *

target: UniProt:P43405; test: Syk kinase inhibition (Syk IC50 of Table 1); assay type: biochemical
Listing of entries alongside the reported IC50.

CN(C)[C@@H]1CCN(C(=O)Nc2cccc(Nc3cc(N[C@H](CO)c4ccccc4)c(C(N)=O)cn3)c2)C1 : > 1000 nM

// below: IC50 requested for another molecule
Ask: Give its IC50 value. Item: CC(=O)Nc1cccc(Nc2cc(NCc3ccccc3F)c(C(N)=O)cn2)c1
Result: > 1000 nM

* * *

target: JAK3 (Homo sapiens); construct: 5 μl of catalytic domain recombinant Kinase enzyme+Tyr peptide substrate (Invitrogen, Calif.); experiment: Z'-LYTE kinase assay, JAK3 tyrosine phosphorylation activity
Sequence (P52333 822-1111 limits assumed): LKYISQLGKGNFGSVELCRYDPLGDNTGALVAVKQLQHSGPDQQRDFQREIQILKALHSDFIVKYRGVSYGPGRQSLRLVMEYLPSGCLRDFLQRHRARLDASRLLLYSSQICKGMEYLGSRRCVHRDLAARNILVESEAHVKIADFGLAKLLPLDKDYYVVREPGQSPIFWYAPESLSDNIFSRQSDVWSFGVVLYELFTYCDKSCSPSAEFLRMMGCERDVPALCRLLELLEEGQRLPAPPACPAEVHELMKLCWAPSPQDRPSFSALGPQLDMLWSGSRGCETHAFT
measured quantity: IC50

Some solved cases for reference:
C[C@@H](Nc1nc(Nc2cccc(NC(=O)N3CCCCC3)c2)ncc1C(N)=O)c1ccccc1 [Example 220] : 1 to 10 nM
CC(=O)Nc1cccc(Nc2ncc(C(N)=O)c(NCC3CCCN(C(C)=O)C3)n2)c1 (centres unmarked) [Example 119] : 1 to 10 nM
CNC(=O)c1cnc(Nc2cccc(NC(=O)COC)c2)nc1NCc1ccccc1 [Example 113] : 100 to 1000 nM
NC(=O)c1cnc(Nc2cccc(NC(=O)Cc3ccncc3)c2)nc1NCc1ccccc1F [Example 299] : < 1 nM
CN(C)C(=O)Nc1cc(Nc2ncc(C(N)=O)c(NCc3ccccc3)n2)ccc1Cl [Example 196] : 1 to 10 nM

Ask: Give its IC50 value. Item: CC(=O)Nc1cccc(Nc2cc(NCCC(C)C)c(C(N)=O)cn2)c1 [Example 327]
Result: 10 to 100 nM

* * *

target: Syk (Homo sapiens, UniProt P43405); assay: Syk IC50 (Table 1; method not given); type: biochemical
Listing of entries alongside the reported IC50.

Some solved cases for reference:
CC(=O)Nc1cccc(Nc2ncc(C(N)=O)c(NC3CCC3)n2)c1 [Example 1] : 100 to 1000 nM
CC(=O)Nc1cccc(Nc2ncc(C(N)=O)c(NCC3CCCN(C(N)=O)C3)n2)c1 (stereo not drawn) [Example 117] : 100 to 1000 nM

Ask: Give its IC50 value. Item: CC(=O)Nc1cccc(Nc2ncc(C(N)=O)c(NC(C)(C)C)n2)c1 [Example 13]
Result: 100 to 1000 nM
